- System: HT29 colon
- Assay: NCI tumour cell line growth inhibition, 48 h
Decide using TGI: a value greater than or equal to 40 µM is 1 (yes), a smaller one is 0 (no).

CCOC(=O)Cc1c(C)c2ccc(OC(C)=O)c(OC(C)=O)c2oc1=O :: 1 (yes)
CC(C)N(C(=O)C12C3C4C1C1C2C3C41C(=O)C(C)(C)C)C(C)C (stereo not drawn) :: 1 (yes)
CC1(CO)C(O)CCC2(C)C1CCC1CC3CC12CCC3(O)CO (stereo not drawn) :: 1 (yes)
COc1cc2c(Oc3ccc(NC(=O)C4(C(=O)Nc5ccc(F)cc5)CC4)cc3F)ccnc2cc1OCCCN1CCOCC1 :: 0 (no)
O=C1c2ccccc2N=C(c2cc3c(cc2Cl)Sc2nccn2S3(=O)=O)OS(=O)(=O)N1c1ccccc1 :: 1 (yes)
NC(Cc1ccccc1)C(=O)OCN1C(=O)C2C3C=CC(C2C1=O)C1C2C(=O)N(COC(=O)C(N)Cc4ccccc4)C(=O)C2C31 (stereo not drawn) :: 1 (yes)
CC1(C)OB(c2ccc(N(CCOS(C)(=O)=O)CCOS(C)(=O)=O)cc2)OC1(C)C :: 1 (yes)
CC12Nc3ccccc3C1=C(c1ccccc1)CC1C(=O)OC(=O)C12 (stereo not drawn) :: 1 (yes)
C[C@@H]1CC[C@H]2[C@@H](C)C(O)O[C@@H]3O[C@]4(C)CC[C@@H]1[C@]32OO4 (stereo partly drawn) :: 0 (no)
O=S(=O)(C1=CC(S(=O)(=O)c2ccccc2)COC1)c1ccccc1 (stereo not drawn) :: 1 (yes)
CCCCCCCCCCC(=O)CCCCCCC(=O)O :: 0 (no)
O=C1CC(c2ccc(Cl)cc2)C2(C(=O)NC(=S)NC2=O)C(c2ccc(Cl)cc2)C1 (stereo not drawn) :: 0 (no)
CC(=O)Nc1ccc(NC(=O)CC(=O)Nc2ccc(NC(C)=O)cc2)cc1 :: 1 (yes)
